# Experiment: Selectivity index, ratio of IC50 for human MT2 cells to IC50 for HIV1 NL4-3 infected in human MT2 cells
# Format: toxicity, cell-based
# Run Parameters: uninfected versus infected with HIV1 NL4-3, read-out: Ratio IC50
Readout Name: selectivity ratio
Please state the value as a number alone, without comment.

Prompt: What selectivity ratio value was documented for this molecule, O=c1[nH]c2cc(S(=O)(=O)Nc3ccc4[nH]ncc4c3)ccc2o1 ?
Response: 3.8

* * *

# System: MT2
# Experiment: Cytotoxicity against human MT2 cells after 72 hrs by CellTiter-Glo reagent-based assay
# Run Parameters: MT2, 72 h
Readout Name: pIC50
Note: pIC50 values are expressed as the negative base-10 logarithm of concentration in M.

Prompt: What pIC50 value was documented for this molecule, O=c1[nH]c2cc(S(=O)(=O)Nc3ccc4[nH]ncc4c3)ccc2o1 ?
Response: 3.85
